Each recorded value in this set is attributed to patent US20130303507A1.

# TARGET_SYSTEM: Cdk9/cyclinT1 (Homo sapiens)
# Sequence (P50750 whole entry): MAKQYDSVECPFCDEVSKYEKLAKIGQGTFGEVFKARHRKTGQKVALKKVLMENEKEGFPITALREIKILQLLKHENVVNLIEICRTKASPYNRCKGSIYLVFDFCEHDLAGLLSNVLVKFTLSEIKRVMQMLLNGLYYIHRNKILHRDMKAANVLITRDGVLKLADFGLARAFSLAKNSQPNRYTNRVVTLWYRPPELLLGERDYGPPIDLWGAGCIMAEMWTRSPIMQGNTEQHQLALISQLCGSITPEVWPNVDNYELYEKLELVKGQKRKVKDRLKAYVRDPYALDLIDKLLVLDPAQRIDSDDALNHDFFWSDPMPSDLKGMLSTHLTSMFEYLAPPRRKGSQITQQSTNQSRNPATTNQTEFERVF
# Sequence (O60563 whole entry partner): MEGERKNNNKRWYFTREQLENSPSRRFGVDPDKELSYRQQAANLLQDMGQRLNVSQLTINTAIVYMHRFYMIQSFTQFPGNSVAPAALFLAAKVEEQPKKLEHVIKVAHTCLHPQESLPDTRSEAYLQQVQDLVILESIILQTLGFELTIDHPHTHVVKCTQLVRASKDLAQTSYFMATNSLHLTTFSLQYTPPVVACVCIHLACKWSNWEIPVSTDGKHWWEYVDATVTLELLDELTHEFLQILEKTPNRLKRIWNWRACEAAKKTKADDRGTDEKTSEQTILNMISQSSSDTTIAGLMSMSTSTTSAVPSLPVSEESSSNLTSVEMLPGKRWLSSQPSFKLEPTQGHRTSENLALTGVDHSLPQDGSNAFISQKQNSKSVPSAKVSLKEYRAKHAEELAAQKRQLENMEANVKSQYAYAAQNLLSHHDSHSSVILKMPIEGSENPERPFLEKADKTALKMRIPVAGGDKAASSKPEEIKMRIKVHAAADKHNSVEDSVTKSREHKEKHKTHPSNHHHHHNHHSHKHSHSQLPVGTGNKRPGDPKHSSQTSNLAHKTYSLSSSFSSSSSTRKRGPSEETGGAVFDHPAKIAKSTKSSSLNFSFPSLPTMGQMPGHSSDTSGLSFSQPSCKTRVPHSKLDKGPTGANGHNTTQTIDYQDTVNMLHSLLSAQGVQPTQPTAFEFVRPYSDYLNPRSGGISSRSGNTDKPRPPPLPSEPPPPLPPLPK
# TEST_DETAILS: Cdk9/cyclinT1 Alpha Screen protocol
# Assay type: biochemical
# Parameters: Full length wild type Cdk9/cyclin T1 is purchased from Invitrogen; purchased Invitrogen PV4131
# MEASUREMENT_SETUP: neutral species; individual determinations; read-out: CDK9_cyclinT1_AS2_IC50
Reported IC50 values follow for various compounds
VALUE_KIND: IC50

[
  {
    "COMPOUND": "[2H]C([2H])([2H])OCC(C)N[C@H]1CC[C@H](Nc2cc(-c3cncc(OCC4(C#N)CCOCC4)n3)c(Cl)cn2)CC1 (stereo partly shown)",
    "OBSERVED_VALUE": "< 1 nM"
  },
  {
    "COMPOUND": "[2H][C@@](C)(COC)N[C@H]1CC[C@H](Nc2cc(-c3cccc(NCC4(C#N)CCOCC4)n3)c(Cl)cn2)CC1",
    "OBSERVED_VALUE": "< 1 nM"
  },
  {
    "COMPOUND": "COC[C@@H](C)N[C@H]1CC[C@H](Nc2cc(-c3cncc(OCC4(C#N)CCOCC4)n3)c(F)cn2)CC1",
    "OBSERVED_VALUE": "0.654 nM"
  },
  {
    "COMPOUND": "[2H][C@](C)(COC)N[C@H]1CC[C@H](Nc2cc(-c3cccc(NCC4(C#N)CCOCC4)n3)c(Cl)cn2)CC1",
    "OBSERVED_VALUE": "< 1 nM"
  }
]
